The values you see were collected from patent US20140087995A1.

Target: T1, human calcitonin receptor (human, UniProt P30988 25-474)
T1 construct: whole, on cells; Membranes from stably transfected BHK cells; also called hCTR; hCT
T1 sequence (looked up): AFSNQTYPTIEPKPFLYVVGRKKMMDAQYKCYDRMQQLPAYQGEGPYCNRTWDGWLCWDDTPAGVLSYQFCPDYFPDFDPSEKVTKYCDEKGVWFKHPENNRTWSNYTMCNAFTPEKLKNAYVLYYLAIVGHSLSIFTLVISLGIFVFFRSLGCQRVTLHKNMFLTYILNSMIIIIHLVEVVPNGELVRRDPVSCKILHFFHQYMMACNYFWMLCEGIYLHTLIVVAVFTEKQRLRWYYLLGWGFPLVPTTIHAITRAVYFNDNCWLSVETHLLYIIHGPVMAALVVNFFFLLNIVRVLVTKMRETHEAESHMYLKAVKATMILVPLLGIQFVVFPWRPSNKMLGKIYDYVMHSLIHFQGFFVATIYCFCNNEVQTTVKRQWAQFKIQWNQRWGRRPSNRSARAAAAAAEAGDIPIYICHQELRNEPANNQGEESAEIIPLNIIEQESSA
Assay: ratio of IC50 on human calcitonin receptor to IC50 on human amylin receptor
Numbered stars: 1 amine (or outer) side, 2 acyl side, 3 side chain; on linkers, the order of the positions; unused ones are H or OH. Bridge positions count the residues as written; N and C are the ends. Side chains are listed from the residue outwards. Ends that are not written are not given here. * marks the point of attachment. C20 diacid = O=C(O)CCCCCCCCCCCCCCCCCCC(=O)*; γGlu = O=C(O)[C@H](CCC(=O)[*:2])N[*:1]
Measured Property: Ratio hCT/hAmylin binding

[A] K([γGlu-γGlu-C20 diacid])CNTATCATQRLADFLRHSSPNFGAIPSSTNVGPETY-NH2 (disulfide 2-7)
[B] K([γGlu-γGlu-C20 diacid])CNTATCATQRLAEFLRHSSPNFGAIPSSTNVGPHTY-NH2 (disulfide 2-7 (inferred))
Challenge: Consider entries A and B . Which has the numerically lower Ratio hCT/hAmylin binding? Which one? Tell me its label.
Response given: B

[I] K([γGlu-γGlu-C20 diacid])CNTATCATQRLAEFLRHSSPNFGAIPSSTNVGPETY-NH2 (disulfide 2-7 (inferred))
[II] K([γGlu-γGlu-C20 diacid])CNTATCATQRLADFLRHSSPNFGAIPSSTNVGPRTY-NH2 (disulfide 2-7, also called compound 130)
Challenge: Ratio hCT/hAmylin binding comparison. Which is larger, I or II ? I would appreciate it if you answered with the label of your choice.
Response given: II
(II: 280, I: 17.6)
